Field: % Mortality 24 h. Provide a value for each of the compounds that follow.
Tested on: larvae of blowfly, Lucilia sericata
Assay: whole plant or invertebrate
Settings: dose rate of 20 ppm; Lucilia sericata larvae on treated filter paper with bovine serum; assessed at 24 h
Answers are plain numbers, in %.

Example entries begin here.
N#Cc1ccc(-c2ccc(C=C3OC(=O)C(c4ccc(C(F)(F)F)cc4)=C3O)cc2)cc1 (mixture of isomers)    0
N#Cc1ccc(C=C2OC(=O)C(c3ccc(C(F)(F)F)cc3)=C2O)cc1 (mixture of isomers) [R=H, R1=4-CF3—C6H4**, R2=4-CN—C6H4]    100
N#Cc1ccc(C2=C(O)C(=Cc3ccc(-c4ccc(Cl)cc4)cc3)OC2=O)cc1 (mixture of isomers)    0

Attention now turns to another entry.
Read off the recorded % Mortality 24 h for O=C1OC(=Cc2ccc(-c3ccc(Cl)cc3)cc2)C(O)=C1c1ccc(F)cc1 (mixture of isomers)
0
